These entries and their values trace back to the supplement of paper PMC10883282.

Tested on: SW982
Assay: relative viability vs DMSO control (72 h) (fraction); higher = more viable cells
Conditions: 0.01372 µM
readout: relative viability
One number for each entry.

O=C(Nc1ccc(OC(F)(F)Cl)cc1)c1cnc(N2CC[C@@H](O)C2)c(-c2cc[nH]n2)c1 :: 1.01
N#CC1(c2ccc(NC(=O)c3cccnc3NCc3ccncc3)cc2)CCCC1 :: 0.99
COc1cc(OC)c(/C=C/S(=O)(=O)Cc2ccc(OC)c(NCC(=O)O)c2)c(OC)c1 :: 1.07

# batch: return relative viability for each of the 3 molecules below
1. CN1CC[C@@H](NC(=O)Nc2ccc(C#N)cc2)C[C@@H]1c1nc2ccccc2[nH]1
2. CC(C)(O)CNc1nc(Nc2ccnc(C(F)(F)F)c2)nc(-c2cccc(C(F)(F)F)n2)n1
3. O=C1NC(=O)[C@@H](c2cn3c4c(cccc24)CCC3)[C@@H]1c1c[nH]c2ccccc12 [Tivantinib]

1. 1
2. 1.05
3. 1.06

Name the reported relative viability value associated with the molecule Cc1cccc(-c2nn3c(c2-c2ccnc4ccc(C(N)=O)cc24)CCC3)n1
0.999
